test system: Fibroblast; assay: Multiplex assay against human fibroblast; assay type: toxicity, cell-based; conditions: 24 h, 1 µM, compound concentration 1 uM, replicate 2
Form field: Population Tubulin-Different-Phenotype (%) (one value per entry).
Form entry: value (%) — number only.

COMPOUND: CN1C(=O)[C@@H](NC(=O)c2cc3ccccc3[nH]2)N=C(c2ccccc2)c2ccccc21 [DEVAZEPIDE]
MEASURED VALUE: 6
--
COMPOUND: N#CCNC(=O)c1ccc(-c2ccnc(Nc3ccc(N4CCOCC4)cc3)n2)cc1
MEASURED VALUE: 8
--
COMPOUND: CCCc1cc(C)[nH]c(=O)c1CNC(=O)c1cc(-c2ccc(N3CCN(C(C)C)CC3)nc2)cc2c1cnn2C(C)C
MEASURED VALUE: 82

Item CC(C)c1cc(Nc2nc(N3CCC[C@H](N)C3)ncc2C(N)=O)cc(C(C)C)n1 has what recorded Population Tubulin-Different-Phenotype (%)?
94

Same question, CCCCN(CC)c1nc(C)nc2c1c(C)cn2-c1c(C)cc(C)cc1C.Cl this time
7

Same question, CC[C@H](Nc1ncnc2[nH]cnc12)c1nc2cccc(F)c2c(=O)n1-c1ccccc1 this time
33

Same question, CC(Cc1ccc(O)c(O)c1)C(C)Cc1ccc(O)c(O)c1 (stereo not drawn) [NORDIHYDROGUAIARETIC ACID] this time
23

Same question, CC(/C=C1\SC(=S)N(CCCC(=O)Nc2ccc(C(=O)O)c(O)c2)C1=O)=C\c1ccccc1 this time
12

###

Form field: Growth Rate (one value per entry).
system: HEK-293T; test: Incucyte cell viability with HEK293T; format: toxicity, cell-based; conditions: human, 18 h, 10 µM, compound concentration 10 uM, replicate number 1, timepoint 18 hours; further: filed as whole numbers so only -1 and 0 and 1 occur

Past entries and their recorded results:
COMPOUND: Cl.Cn1c2c(c3ccc(Cl)c(Cl)c31)C(C#N)C1(CCNCC1)NC2=O (stereo unspecified)
Growth Rate: 0

COMPOUND: C[C@H](NC(=O)Nc1cc2[nH]ncc2c(CO)n1)c1ccccn1
Growth Rate: 1

COMPOUND: C[C@H]1C[C@H]2[C@@H]3CCC4=CC(=O)C=C[C@]4(C)[C@@]3(Cl)[C@@H](O)C[C@]2(C)[C@@]1(O)C(=O)CO
Growth Rate: 1

COMPOUND: Cc1c(Nc2ccc(S(=O)(=O)N3CCN(C)CC3)cc2F)nc2ccc(-c3cnn(C4CC4)c3)cn2c1=O
Growth Rate: 1

Test system HEK-293T; read-out Growth Rate; what value for C[C@@H](N)Cc1c[nH]cn1.Cl.Cl ?
1

Same question, CC(/C=C1\SC(=S)N(CCCC(=O)Nc2ccc(C(=O)O)c(O)c2)C1=O)=C\c1ccccc1 this time
0

###

system: Fibroblast; test: Multiplex assay against human fibroblast; assay type: toxicity, cell-based; conditions: 24 h, 1 µM, compound concentration 1 uM, replicate 1
Form field: Population Membrane Permeable-Phenotype (%) (one value per entry).
Form entry: value (%) — number only.

Past entries and their recorded results:
MOLECULE: CC[C@@H]1C(=O)N(C)c2cnc(Nc3ccc(C(=O)NC4CCN(C)CC4)cc3OC)nc2N1C1CCCC1
MEASURED VALUE: 3
--
MOLECULE: C=CC(=O)Nc1cc(-n2c(=O)ccc3cnc4ccc(-c5ccc(NS(C)(=O)=O)cc5)cc4c32)ccc1C
MEASURED VALUE: 22
--
MOLECULE: CN1C(=O)[C@@H](NC(=O)c2cc3ccccc3[nH]2)N=C(c2ccccc2)c2ccccc21 [DEVAZEPIDE]
MEASURED VALUE: 21
--
MOLECULE: CCCc1cc(C)[nH]c(=O)c1CNC(=O)c1cc(-c2ccc(N3CCN(C(C)C)CC3)nc2)cc2c1cnn2C(C)C
MEASURED VALUE: 11

Item CCCCN(CC)c1nc(C)nc2c1c(C)cn2-c1c(C)cc(C)cc1C.Cl has what recorded Population Membrane Permeable-Phenotype (%)?
21

Same question, CCOC(=O)CCNc1cc(N2CCc3ccccc3CC2)nc(-c2ccccn2)n1 this time
11

Same question, Cc1ccc(S(=O)(=O)NC2c3ccccc3Oc3ccccc32)cc1 this time
28

Same question, CC(/C=C1\SC(=S)N(CCCC(=O)Nc2ccc(C(=O)O)c(O)c2)C1=O)=C\c1ccccc1 this time
29

Same question, C[C@@H](Oc1cc(-n2cnc3ccc(CN4CCN(C)CC4)cc32)sc1C(N)=O)c1ccccc1C(F)(F)F this time
12
